Exercise: for every item that follows, state its recorded IC50.
biological target: Human TRPC6 (Homo sapiens); construct: expressed in transfected cells; assay: Evaluation of TRPC6 channel inhibitory activity (1), FLIPR Calcium 5 Assay Kit, OAG stimulation (Compound Nos. 1-1293); assay type: cell-based; conditions: Human TRPC6 stably-expressing cells, OAG 30 μM, FLIPR Calcium 5 Assay Kit; read-out: Inhibitory activity (pIC50 class) (converted)

Below: 6 molecules and their reported IC50.
molecule="Cc1nc(Sc2cc(C#N)ccc2-c2ncc(CN)cn2)cc(N(C)C)n1 [compound 1263]" measured_property=IC50 test_value="> 1 µM"
molecule="Cn1nc2c(c1Oc1cc(C#N)ccc1-c1ncc(CN)cn1)CCC2 [compound 678]" measured_property=IC50 test_value="> 1 µM"
molecule="CC(C)NCc1cnc(-c2ccc(C#N)cc2Oc2cc(-c3ccccn3)nn2C)nc1 [compound 663]" measured_property=IC50 test_value="0.01 to 1 µM"
molecule="Cn1nc(-c2ccccn2)cc1Oc1cc(C#N)ccc1-c1ccc(CCN)nc1 [Compound 162]" measured_property=IC50 test_value="< 0.01 µM"
molecule="Cc1nc(Oc2cc(C#N)ccc2-n2ncc3c2CCC(N)C3O)cc(-c2ccccc2)n1 (centres unmarked) [Compound 192]" measured_property=IC50 test_value="0.01 to 1 µM"
molecule="CCN(CC)c1cc(C(=O)c2cc(C#N)ccc2-c2ncc(CN)cn2)n(C)n1 [compound 1061]" measured_property=IC50 test_value="< 0.01 µM"

Hi team, please reply with IC50 for each item in this list.
1. Cc1cc(Oc2cc(C#N)ccc2-c2ccc([C@H](O)CN)cn2)cc(-c2ncc(C)s2)n1 [compound 605]
2. Cn1nc(C2CC2)cc1Oc1cc(C#N)ccc1-c1ccc(C(N)C(=O)N2CCOCC2)cn1 (centres unmarked) [Compound No. 487]

0.01 to 1 µM
> 1 µM

====

target: Human TRPC6 (Homo sapiens, UniProt Q9Y210); construct: expressed in transfected cells; assay: Evaluation of TRPC6 channel inhibitory activity (1), FLIPR Calcium 5 Assay Kit, OAG stimulation (Compound Nos. 1-1293); type: cell-based; details: Human TRPC6 stably-expressing cells, OAG 30 μM, FLIPR Calcium 5 Assay Kit; read-out: Inhibitory activity (pIC50 class) (converted)
Sequence (Q9Y210 whole entry): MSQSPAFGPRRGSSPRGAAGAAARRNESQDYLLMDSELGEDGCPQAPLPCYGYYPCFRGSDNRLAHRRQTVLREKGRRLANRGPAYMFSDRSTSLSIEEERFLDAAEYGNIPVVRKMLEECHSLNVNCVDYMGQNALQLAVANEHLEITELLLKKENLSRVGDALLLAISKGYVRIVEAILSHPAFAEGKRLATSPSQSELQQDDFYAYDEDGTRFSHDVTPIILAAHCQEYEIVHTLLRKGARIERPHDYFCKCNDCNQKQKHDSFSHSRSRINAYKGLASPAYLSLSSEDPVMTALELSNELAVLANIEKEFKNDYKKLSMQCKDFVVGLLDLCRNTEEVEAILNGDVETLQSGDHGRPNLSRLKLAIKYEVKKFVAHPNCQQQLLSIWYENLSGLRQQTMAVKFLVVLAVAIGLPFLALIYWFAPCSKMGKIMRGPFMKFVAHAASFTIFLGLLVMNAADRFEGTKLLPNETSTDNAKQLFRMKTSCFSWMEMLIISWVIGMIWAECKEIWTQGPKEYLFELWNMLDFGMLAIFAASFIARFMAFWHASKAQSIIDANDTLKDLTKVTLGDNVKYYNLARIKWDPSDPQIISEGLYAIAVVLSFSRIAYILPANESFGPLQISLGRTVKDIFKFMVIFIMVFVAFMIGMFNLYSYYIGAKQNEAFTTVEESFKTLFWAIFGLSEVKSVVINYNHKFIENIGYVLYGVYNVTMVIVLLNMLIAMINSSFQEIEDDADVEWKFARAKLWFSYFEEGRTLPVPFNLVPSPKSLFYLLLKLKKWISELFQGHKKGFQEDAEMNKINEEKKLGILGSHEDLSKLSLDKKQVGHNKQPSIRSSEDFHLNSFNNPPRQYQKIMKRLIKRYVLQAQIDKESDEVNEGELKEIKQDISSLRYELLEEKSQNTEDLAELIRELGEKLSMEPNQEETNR
Exercise: for every item that follows, state its recorded IC50.

Below: 3 compounds and their reported IC50.
smiles=Cc1sc(N2CCOCC2)nc1C(=O)c1cc(C#N)ccc1-c1ccc(CCN)cn1 test_value="10 to 1000 nM"
smiles=N#Cc1ccc(-c2ccc(CCN)cc2)c(Cn2cnc(-n3cnnn3)c2)c1 test_value="> 1000 nM"
smiles=Cc1ncc(-c2cc(Oc3cc(C#N)ccc3-c3ncc(CN)cn3)n(C)n2)s1 test_value="10 to 1000 nM"

// next item, IC50 requested
Form field, IC50 with Human TRPC6 (Homo sapiens, UniProt Q9Y210), item COc1ccccc1-c1cc(Oc2cc(C#N)ccc2-c2ccc(CCN)cc2)cnn1 : 10 to 1000 nM

====

Exercise: for every item that follows, state its recorded IC50.
target: Human TRPC6 (Homo sapiens, UniProt Q9Y210); construct: expressed in transfected cells; experiment: Evaluation of TRPC6 channel inhibitory activity (1), FLIPR Calcium 5 Assay Kit, OAG stimulation (Compound Nos. 1-1293); type: cell-based; details: Human TRPC6 stably-expressing cells, OAG 30 μM, FLIPR Calcium 5 Assay Kit; read-out: Inhibitory activity (pIC50 class) (converted)

Below: 2 compounds and their reported IC50.
compound="Cc1nn(CC(F)(F)F)cc1Oc1cc(C#N)ccc1-c1ncc(CN)cn1 [compound 835]" test_value="< 10 nM"
compound="Cc1cc(Oc2cc(C#N)ccc2-c2ccc(C(F)(F)CN)cn2)cc(N2CCOCC2)n1 [compound 307]" test_value="10 to 1000 nM"

Hi team, please reply with IC50 for each item in this list.
1. N#Cc1ccc(-c2ccc(CCN)cc2)c(Oc2cnnc(C3CCCC3)c2)c1 [Compound 137]
2. Cn1nc(C2CC2)cc1Oc1cc(C#N)ccc1-c1cc(C(=O)N2CCC[C@H](N)C2)ccn1 [compound 555]
3. CCN(CC(F)F)c1cc(Oc2cc(F)ccc2-c2ncc(CCN)cn2)n(C)n1 [compound 989]
4. Cc1nc(C(C)c2cc(C#N)ccc2-c2ccc(CCN)cc2)cc(N2CCOCC2)n1 (stereo not shown) [Compound No. 1226]
5. CN(C)CCOc1ccc(-c2ccc(C#N)cc2Oc2cc(C3CC3)nn2C)nn1 [compound 784]
6. Cc1cc(Oc2cc(C#N)ccc2-c2ccc([C@H](O)CN)cn2)cc(N2CCOC(C)(C)C2)n1 [compound 531]
7. Cc1cc(C(=O)c2cc(F)ccc2-c2ncc(CCN)cn2)cc(N2CCOCC2)n1 [compound 1097]
8. CCCN(CCC)c1cc(Oc2cc(C#N)ccc2-c2ccc(CCN)cc2)nc(C)n1 [Compound 16]

["< 10 nM", "> 1000 nM", "< 10 nM", "10 to 1000 nM", "> 1000 nM", "< 10 nM", "< 10 nM", "10 to 1000 nM"]

Hi team, please reply with IC50 for each item in this list.
1. N#Cc1ccc(-c2ccc(CCN)cc2)c(Oc2sc(N3CCCCC3)nc2C(F)(F)F)c1 [compound 785]
2. Cn1nc(N2CCOCC2)cc1Oc1cc(F)ccc1-c1ncc(CN)cn1 [compound 974]

1: 10 to 1000 nM; 2: 10 to 1000 nM

Hi team, please reply with IC50 for each item in this list.
1. Cn1nc(C2CC2)cc1Oc1cc(C#N)ccc1-c1cccn2c([C@@H](N)CCO)nnc12 (stereo in doubt) [compound 533]
2. Cc1cc(Oc2cc(C#N)ccc2-c2cc(CCN)ccn2)cc(N2CCOCC2)n1 [compound 638]
3. Cc1nc(Oc2cc(C#N)ccc2-n2cc([C@@H](O)CN)cn2)cc(N2CCCCC2)n1 [Compound 233]

> 1000 nM
10 to 1000 nM
< 10 nM

Looking up CCN(CC)c1cc(Oc2cc(F)ccc2-c2ncc(CCN)cn2)n(C)n1 [compound 972] , I see its IC50 listed as < 10 nM
